Molecular target: T1, rHuman Erythropoietin R/Fc Chimera, CF (R&D Systems Cat#963-ER) (human, UniProt P19235 25-250)
T1 construct: Bought recombinant protein; also called EPO R; EPO R/Fc
T1 sequence (looked up): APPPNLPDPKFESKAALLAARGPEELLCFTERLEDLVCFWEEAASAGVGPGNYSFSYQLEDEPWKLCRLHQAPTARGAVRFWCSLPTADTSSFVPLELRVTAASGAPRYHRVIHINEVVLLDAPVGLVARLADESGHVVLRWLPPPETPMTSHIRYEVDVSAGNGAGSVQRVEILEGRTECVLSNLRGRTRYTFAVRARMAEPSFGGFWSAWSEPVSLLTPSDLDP
Assay: ECL multispot (MSD) binding assay, antigen spotted on plate;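 further: purified Fab incubated 1 h at 20 °C on antigen spots, detected with TAG-labelled antibody, electrochemiluminescence compared with each well's blank, signal-to-blank ratio ≥4 counted as hit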
Observed property: ECL signal

Tell us which ECL signal value is on record for Fab VH1-46_IGHD6-6*01_IGHJ1*01 S102A/S103P/S104F/H111F (APFF) & L6_IGKJ1*01 S31H (Fab, V domains shown, Tested as Fab (CH1 with His6/Flag tags, kappa CL) made in E. coli; also called APFF / S31H) VH: QVQLVQSGAEVKKPGASVKVSCKASGYTFTSYYMHWVRQAPGQGLEWMGIINPSGGSTSYAQKFQGRVTMTRDTSTSTVYMELSSLRSEDTAVYYCAREEYAPFSAEYFQFWGQGTLVTVSS VL: EIVLTQSPATLSLSPGERATLSCRASQSVSHYLAWYQQKPGQAPRLLIYDASNRATGIPARFSGSGSGTDFTLTISSLEPEDFAVYYCQQRSNWPPWTFGQGTKVEIKR 504
